These data points were gathered from ChEMBL document CHEMBL1126350.

Organism: Rattus norvegicus
assay-remarks: Inhibition of kainic acid (KA)-induced currents in rat brain mRNA-injected xenopus oocytes
Type: functional
assay-endpoint: pKi
Here pKi is given on a logarithmic scale as minus log10 of the concentration in mol/L.

Please review the following examples before continuing.
{"columns": ["compound", "pKi"],
 "data": [
  ["NC(Cc1cc(Cl)ccc1CCP(=O)(O)O)C(=O)O (centres undefined)", 4.82],
  ["NC(Cc1cc(F)ccc1CCP(=O)(O)O)C(=O)O (centres undefined)", 4.17],
  ["Cc1cc(C)c(CCP(=O)(O)O)c(CC(N)C(=O)O)c1 (centres undefined)", 4.92]
]}

Reported pKi ( NC(Cc1cc(C(F)(F)F)ccc1CCP(=O)(O)O)C(=O)O (centres undefined) ) = 5.00

* * *

Species: Rattus norvegicus
assay-remarks: The compound was tested for its ability to inhibit AMPA-induced currents in rat brain mRNA-injected xenopus oocytes
Type: functional
assay-endpoint: Ki (µM)
Field format: number, assumed µM, no unit text.

Here's what some known entries look like.
{"columns": ["compound", "assay-endpoint", "assay-value"],
 "data": [
  ["Cc1cc(C)c(CCP(=O)(O)O)c(CC(N)C(=O)O)c1 (configuration not stated)", "Ki", 39],
  ["NC(Cc1cc(Cl)ccc1CCP(=O)(O)O)C(=O)O (configuration not stated)", "Ki", 48],
  ["CCc1ccc(CCP(=O)(O)O)c(CC(N)C(=O)O)c1 (configuration not stated)", "Ki", 50],
  ["NC(Cc1cc(F)ccc1CCP(=O)(O)O)C(=O)O (configuration not stated)", "Ki", 167],
  ["Cc1ccc(CCP(=O)(O)O)c(CC(N)C(=O)O)c1 (configuration not stated)", "Ki", 13],
  ["NC(Cc1cc(I)ccc1CCP(=O)(O)O)C(=O)O (configuration not stated)", "Ki", 16]
]}

Now, please, on to the next compound.
Value of Ki reported for the compound NC(Cc1cc(Br)ccc1CCP(=O)(O)O)C(=O)O (configuration not stated) is 61

* * *

Listing of recorded pKi by entry.
Organism: Rattus norvegicus
assay-remarks: Inhibition of kainic acid (KA)-induced currents in rat brain mRNA-injected xenopus oocytes
Assay type: functional
pKi here: minus log base 10 of the concentration, concentration in moles per litre.

Sample records with pKi:
{"columns": ["molecule", "assay-value"],
 "data": [
  ["NC(Cc1cc(Br)ccc1CCP(=O)(O)O)C(=O)O (configuration not stated)", 5.00],
  ["NC(Cc1cc(C2CCCCC2)ccc1CCP(=O)(O)O)C(=O)O (configuration not stated)", 3.86],
  ["NC(Cc1cccc(-c2ccccc2)c1CCP(=O)(O)O)C(=O)O (configuration not stated)", 4.08],
  ["NC(Cc1cc(I)ccc1CCP(=O)(O)O)C(=O)O (configuration not stated)", 5.44],
  ["Cc1ccc(CCP(=O)(O)O)c(CC(N)C(=O)O)c1 (configuration not stated)", 4.96],
  ["CCc1ccc(CCP(=O)(O)O)c(CC(N)C(=O)O)c1 (configuration not stated)", 4.77],
  ["NC(Cc1cc(-c2ccccc2)ccc1CCP(=O)(O)O)C(=O)O (configuration not stated)", 4.12],
  ["CC(C)(C)c1ccc(CCP(=O)(O)O)c(CC(N)C(=O)O)c1 (configuration not stated)", 4.54]
]}

// moving on: another record for pKi
# molecule COc1ccc(CCP(=O)(O)O)c(CC(N)C(=O)O)c1 (configuration not stated) ; its pKi = 4.17
